This section presents binders with their documented A450 values.
# system-name: T1, Mouse Id3: Histidine (mouse, UniProt P41133 1-119)
# T1 construct: Fusion protein made in E. coli from vector pGW07; also called m-Id3: His; Mouse Id3 (coated wells); not shown: His tag
# T1 sequence: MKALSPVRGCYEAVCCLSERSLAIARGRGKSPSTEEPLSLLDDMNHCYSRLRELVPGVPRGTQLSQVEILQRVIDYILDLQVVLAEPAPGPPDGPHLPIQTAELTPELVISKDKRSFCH
# assay-protocol: ELISA, Ab 0.100 µg/ml
measured-property: A450 (A450)

binder: rabbit monoclonal anti-mouse/human Id3, clone #BCH-4/#42-1 (antibody, V domains shown, Rabbit IgG from a rabbit hybridoma; also called m/h Id3 MoAb 42-1) VH: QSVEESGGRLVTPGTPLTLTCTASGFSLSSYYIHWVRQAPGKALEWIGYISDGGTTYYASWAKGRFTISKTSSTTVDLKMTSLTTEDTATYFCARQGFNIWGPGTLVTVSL VL: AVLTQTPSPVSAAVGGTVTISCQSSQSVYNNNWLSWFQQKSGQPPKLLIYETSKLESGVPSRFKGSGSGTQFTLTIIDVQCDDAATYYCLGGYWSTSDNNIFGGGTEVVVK
measurement-unit: A450
assay-result: 2.87
//
binder: rabbit monoclonal anti-mouse/human Id3, clone #BCH-4/#17-3 (antibody, V domains shown, Rabbit IgG from a rabbit hybridoma; also called m/h Id3 MoAb 17-3; BCH-3/#17-3) VH: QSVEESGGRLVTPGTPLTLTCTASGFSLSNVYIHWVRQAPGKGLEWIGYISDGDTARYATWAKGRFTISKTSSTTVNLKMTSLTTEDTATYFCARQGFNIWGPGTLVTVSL VL: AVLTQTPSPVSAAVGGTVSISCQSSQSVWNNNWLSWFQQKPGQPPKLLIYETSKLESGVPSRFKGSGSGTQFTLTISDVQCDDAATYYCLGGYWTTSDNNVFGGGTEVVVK
measurement-unit: A450
assay-result: 2.91
//
binder: rabbit monoclonal anti-mouse/human Id3, clone #BCH-4/#16-1 (antibody, V domains shown, Rabbit IgG from a rabbit hybridoma; also called m/h Id3 MoAb 16-1) VH: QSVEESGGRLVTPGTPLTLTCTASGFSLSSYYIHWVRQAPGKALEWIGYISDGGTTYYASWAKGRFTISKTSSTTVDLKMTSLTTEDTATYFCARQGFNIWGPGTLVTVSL VL: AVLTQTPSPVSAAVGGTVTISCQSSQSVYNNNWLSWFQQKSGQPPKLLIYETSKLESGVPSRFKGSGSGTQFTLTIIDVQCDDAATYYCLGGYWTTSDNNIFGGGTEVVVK
measurement-unit: A450
assay-result: 2.28
//
binder: rabbit monoclonal anti-mouse/human Id3, clone #BCH-4/#6-1 (antibody, V domains shown, Rabbit IgG from a rabbit hybridoma; also called m/h Id3 MoAb 6-1) VH: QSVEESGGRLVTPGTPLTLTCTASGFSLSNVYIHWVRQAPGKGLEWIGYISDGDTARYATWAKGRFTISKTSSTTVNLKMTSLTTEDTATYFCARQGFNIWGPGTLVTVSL VL: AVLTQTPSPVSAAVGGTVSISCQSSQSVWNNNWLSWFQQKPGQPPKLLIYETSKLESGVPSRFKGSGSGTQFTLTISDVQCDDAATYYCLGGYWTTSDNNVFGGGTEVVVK
measurement-unit: A450
assay-result: 2.56

Ref: patent US20070178531A1
